target: Peptide 1: Biotin-…-[Tyr(PC)]-acid; assay: scFv ELISA
Sequence (peptide, as listed by the source): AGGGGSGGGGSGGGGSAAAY
measured quantity: OD450 (OD450)
Express the result in OD450 but write the number alone.

Would you please look over these solved cases?
PcOxP_DB04_A12 (scFv, V domains shown, scFv in periplasmic extract) VH: EVQLLESGGGLVQPGGSLRLSCAASGFTFSDGYMEWVRQAPGKGLEWVAASRNKWNDYTTEYADSVKGRFTISRDNSKNTLYLQMNSLRAEDTAVYYCARDYYGSSYWYFDVWGQGTLVTVSS VL: DIQMTQSPSSLSASVGDRVTITCTASESLYSSKHKVHYLAWYQQKPGKAPKLLIYGASNRYDGVPSRFSGSGSGTDFTLTISSLQPEDFATYYCAQFYSYPLTFGGGTKVEIK : 0.71
PcOxP_DB04_C09 (scFv, V domains shown, scFv in periplasmic extract) VH: EVQLLESGGGLVQPGGSLRLSCAASGFTFSSYYMEWVRQAPGKGLEWVAASRNKANDYTTEYADSVKGRFTISRDNSKNTLYLQMNSLRAEDTAVYYCARDYYLSSYWYFDVWGQGTLVTVSS VL: DIVMTQSPDSLAVSLGERATINCTASESLYSPKHKVHYLAWYQQKPGQPPKLLIYGAENRYIGVPDRFSGSGSGTDFTLTISSLQAEDVAVYYCAQFYSYPLTFGGGTKVEIK : 0.55

Here's the next entry for you.
Looking for the measured OD450 of PcOxP_DB01_G03 (scFv, V domains shown, scFv in periplasmic extract) VH: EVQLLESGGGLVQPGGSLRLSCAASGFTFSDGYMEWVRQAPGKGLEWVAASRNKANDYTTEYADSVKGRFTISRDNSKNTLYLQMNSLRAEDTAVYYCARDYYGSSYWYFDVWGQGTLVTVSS VL: DIVMTQSPDSLAVSLGERATINCTASTSLYSSKHKVHYLAWYQQKPGQPPKLLIYGASNRYIGVPDRFSGSGSGTDFTLTISSLQAEDVAVYYCAQFYTYPLTFGGGTKVEIK , can you help?
0.43
